TARGET OR TEST SYSTEM: SARS-CoV-2 spike protein N-terminal domain (NTD) (SARS-CoV-2, UniProt P0DTC2 14-305)
Please respond with reported pKd for every item in the list.
Field pKd (float): negative decimal logarithm of the concentration in molar.

## Task Look up pKd: IMPI-027 (antibody, V domains shown) VH: QVQLQESGPGLVKPSQTLSLTCTVSGGSISSYGYYWNWIRQHPGKGLEWIGYIYYSGSTYYNPSLKSRVTISVDTSKNQLSLRLNSVSAADTAVYYCARDFGGNSNYFDYWGQGTLVTVSS VL: AIQLTQSPSSLSASVGDRVTITCRTSQGISSALAWYQQKPGKAPKLLIYDASSLESGVPSRFSGSGSGTDFTLTISSLQPEDFATYYCQQFNSYPLTFGGGTKVEIK
## Result 5.54

## Task Now the same for IMPI-022 (antibody, V domains shown) VH: EVQLVESGGGLVQPGRSLRLSCAASGFTFDDYAMHWVRQAPGKGLEWVSGITWNSGSIGYADSVKGRFTISRDNAKNSLYLHMNSLRVEDTALYYCAKDLQGDYYYYGVDVWGQGTTVTVSS VL: AIQLTQSPSSLSASVGDRVTITCRASQGISSALAWYQQKPGKAPKLLLYDASSLVSGVPSRFSGSRSGTDFTLTISSLQPEDFATYYCQQFISYPLTFGGGTRVEIK
## Result 6.22

## Task Now this one: IMPI-029 (antibody, V domains shown) VH: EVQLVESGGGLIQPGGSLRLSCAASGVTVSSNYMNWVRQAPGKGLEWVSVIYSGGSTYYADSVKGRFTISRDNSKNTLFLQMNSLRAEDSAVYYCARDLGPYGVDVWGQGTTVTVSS VL: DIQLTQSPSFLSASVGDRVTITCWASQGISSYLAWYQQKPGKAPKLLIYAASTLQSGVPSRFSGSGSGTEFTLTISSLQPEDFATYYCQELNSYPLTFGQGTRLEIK
## Result 6.66

## Task Can you check IMPI-042 (antibody, V domains shown) VH: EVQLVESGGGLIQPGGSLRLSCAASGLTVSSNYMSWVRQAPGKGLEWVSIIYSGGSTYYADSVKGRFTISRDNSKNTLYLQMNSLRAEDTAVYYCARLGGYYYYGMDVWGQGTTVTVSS VL: DIQMTQSPSSLSASVGERVTITCQASQDIRNYLNWYQKKPGKAPKLLIYDSSNLETGVPSRFSGGGSGTDFTFTISSLQPEDIATYYCQQYDNLPITFGQGTRLEIK next?
## Result 6.18

## Task Same question, IMPI-038 (antibody, V domains shown) VH: QVQLVESGGGVVQPGRSLRLSCAASGFTFSSYGMHWVRQAPGKGLEWVAVISYDGSDKYYADSVKGRFTISRDNSKNTLYLQMNSLRAEDTAVYYCAKTVAGYYYYYYGMDVWGQGTTVTVSS VL: DIQMTQSPSSVSASVGDRVTVTCRASQDISSWLAWFQQKPGKAPKFLIYDASNLENGVPSRFSGSGSGTDFTLTISSLQPEDFATYYCQQAKSFPWTFGQGTKVEIN this time
## Result 6.32

## Task # repeat for IMPI-033 (antibody, V domains shown) VH: QVQLQESGPGLVKPSQTLSLTCTVSGGSISSYGYYWSWIRQHPGKGLEWIGYIYYSGSTYYNPSLKSRVTMSVDTSKNQLSLRLNSVSAADTAVYYCARDFGGNSNYFDYWGQGTLVTVSS VL: AIQLTQSPSSLSASVGDRVTITCRASQGISSALAWYQQKPGKAPNLLIYDASSLESGVPSRFSGSGSGTDFTLTISSLQPEDFATYYCQQFNSSPLTFGGGTKVEIK
## Result 5.74

## Task Next record, please: IMPI-017 (antibody, V domains shown) VH: EVQLVESGGGLIQPGGSLRLSCAAAGLTVSSNYMNWVRQVPGKGLEWVSVIYSGGSTYYADSVKGRFTISRDNSKNTLYLQMNSLRAEDTAVYYCARDLGTLGMDVWGQGTTVTVSS VL: DIQLTQSPSFLSASVGDRVTITCWASQGISTYLAWYQQKPGKAPKLLIYAASTLQSGVPSRFSGSGSGTEFTLTISSLQPEDFATYYCQQLNSYLPTFGQGTKVEIK
## Result 5.98

Measured values drawn from patent US20250026813A1 for this set.
